Test system: Calf thymus DNA
ASSAY SUMMARY: Binding affinity to calf thymus DNA by UV-vis spectrophotometric method
Type: nucleic-acid assay
CONDITION LABEL: Bos taurus
MEASUREMENT KIND: log Ks
Answer with a number only.

1) Cl.Cl.Cl.N=C(NC1CCCC1)c1ccc2nc(-c3ccc(OCCNc4ccnc5cc(Cl)ccc45)cc3)[nH]c2c1 : 6.29
2) Cl.Cl.N=C(NC1CCCC1)c1ccc2nc(-c3ccc(Oc4ccnc5cc(Cl)ccc45)cc3)[nH]c2c1 : 6.23
3) Cl.Cl.Clc1ccc2c(Oc3ccc(-c4nc5ccc(C6=NCCCN6)cc5[nH]4)cc3)ccnc2c1 : 6.96

In plain terms, Cl.Cl.Cl.Clc1ccc2c(NCCOc3ccc(-c4nc5ccc(C6=NCCCN6)cc5[nH]4)cc3)ccnc2c1 has a documented log Ks of 6.52

Summary for this compound, Cl.Cl.Clc1ccc2c(Oc3ccc(-c4nc5ccc(C6=NCCN6)cc5[nH]4)cc3)ccnc2c1 : log Ks is 5.76

# log Ks of CC(C)CNC(=N)c1ccc2nc(-c3ccc(Oc4ccnc5cc(Cl)ccc45)cc3)[nH]c2c1.Cl.Cl.Cl = 5.88

response.value for CC(C)CNC(=N)c1ccc2nc(-c3ccc(OCCNc4ccnc5cc(Cl)ccc45)cc3)[nH]c2c1.Cl.Cl.Cl (field: log Ks) = 6.51

The compound listed as CC(C)NC(=N)c1ccc2nc(-c3ccc(OCCNc4ccnc5cc(Cl)ccc45)cc3)[nH]c2c1.Cl.Cl.Cl shows log Ks equal to 6.63
